Tested on: human red blood cells (hRBC)
Test protocol: Hemolysis
Assay type: cell-based
Setup conditions: 100
Non-standard residues stand in square brackets, D forms with d. Residues, ends and D or L forms follow the SMILES beside them. Dab = NCC[C@H](N)C(=O)O
Measurement name: Hemolysis at 100 μg/ml (%)
Give the value, in units of %, as a plain number.

>  <Compound>
CC[C@H](C)[C@@H]1NC(=O)[C@H](Cc2c[nH]c3ccccc23)NC(=O)[C@H]([C@@H](C)O)NC(=O)[C@@H]2CCCN2C(=O)[C@H]2CCCN2C(=O)[C@H](CCN)NC(=O)[C@H](CCC(=O)O)NC(=O)[C@H](CCN)NC(=O)[C@H](CCN)NC(=O)[C@H](Cc2c[nH]c3ccccc23)NC(=O)[C@H](CCN)NC(=O)[C@H](CCN)NC(=O)[C@H](CCCCN)NC(=O)[C@H](CCN)NC1=O [Example 15] (cyclo(TWI[Dab]K[Dab][Dab]W[Dab][Dab]E[Dab][dP]P))

>  <Assay result>
0.3

$$$$

Okay, now this compound:
Entry CC(C)[C@@H]1NC(=O)[C@H](Cc2c[nH]c3ccccc23)NC(=O)[C@H]([C@@H](C)O)NC(=O)[C@@H]2CCCN2C(=O)[C@H]2CCCN2C(=O)[C@H](CCN)NC(=O)[C@H](C)NC(=O)[C@H](CCN)NC(=O)[C@H](CCN)NC(=O)[C@H](Cc2c[nH]c3ccccc23)NC(=O)[C@H](CCN)NC(=O)[C@H](CCN)NC(=O)[C@H](CCCCN)NC(=O)[C@H](CCN)NC1=O [Example 32] (cyclo(TWV[Dab]K[Dab][Dab]W[Dab][Dab]A[Dab][dP]P)) — recorded Hemolysis at 100 μg/ml = 0

---

Recorded Cytotoxicity GI50 Hela cells by entry
Test system: HELA cells (Acc57)
Test protocol: Cytotoxicity assay, MTT reduction (LC 50, GI 50)
Assay type: cell-based
Non-standard residues stand in square brackets, D forms with d. Residues, ends and D or L forms follow the SMILES beside them. dDab = NCC[C@@H](N)C(=O)O; Dab = NCC[C@H](N)C(=O)O
Please respond with the number in µM and leave the unit unwritten.

>  <Molecule>
CC[C@H](C)[C@@H]1NC(=O)[C@H](Cc2ccc(O)cc2)NC(=O)[C@H](CC(=O)O)NC(=O)[C@@H]2CCCN2C(=O)[C@H]2CCCN2C(=O)[C@H](CCN)NC(=O)[C@H](C)NC(=O)[C@H](CCN)NC(=O)[C@H](CCN)NC(=O)[C@H](Cc2c[nH]c3ccccc23)NC(=O)[C@H](CCN)NC(=O)[C@@H](CCN)NC(=O)[C@H](CCCCN)NC(=O)[C@H](CCN)NC1=O [Example 42] (cyclo(DYI[Dab]K[dDab][Dab]W[Dab][Dab]A[Dab][dP]P))

>  <Readout unit>
µM

>  <Cytotoxicity GI50 Hela cells>
50

$$$$

Turning to the following molecule.
The molecule listed as CC[C@H](C)[C@@H]1NC(=O)[C@H](Cc2c[nH]c3ccccc23)NC(=O)[C@H]([C@@H](C)O)NC(=O)[C@@H]2CCCN2C(=O)[C@H]2CCCN2C(=O)[C@H](CCN)NC(=O)[C@@H]2CCCN2C(=O)[C@H](CCN)NC(=O)[C@H](CCN)NC(=O)[C@H](Cc2c[nH]c3ccccc23)NC(=O)[C@H](CCN)NC(=O)[C@H](CCN)NC(=O)[C@H](CCCCN)NC(=O)[C@H](CCN)NC1=O [Example 17] (cyclo(TWI[Dab]K[Dab][Dab]W[Dab][Dab]P[Dab][dP]P)) has a reported Cytotoxicity GI50 Hela cells of 29

---

System: Pseudomonas aeruginosa P1021903
Assay type: cell-based
Setup conditions: P1021903
Method: The selective antimicrobial activities of the peptides were determined in 96-well plates (Nunclon polystyrene) by the standard NCCLS broth microdilution method (see ref 1, below) with slight modifications. Innocula of the microorganisms were diluted into Mueller-Hinton (MH) broth+0.02% BSA and compared with a 0.5 Mcfarland standard to give appr. 10^6 colony forming units (CFU)/ml. […]
Non-standard residues stand in square brackets, D forms with d. Residues, ends and D or L forms follow the SMILES beside them. dDab = NCC[C@@H](N)C(=O)O; hSer = N[C@@H](CCO)C(=O)O; Dab = NCC[C@H](N)C(=O)O
Lab note: compare MIC P. aeruginosa P1021903 with 0.2 µg/mL, writing Y if less and N if equal or more.

Look over these answered cases.
>  <Molecule>
CC[C@H](C)[C@@H]1NC(=O)[C@H](Cc2c[nH]c3ccccc23)NC(=O)[C@H]([C@@H](C)O)NC(=O)[C@@H]2CCCN2C(=O)[C@H]2CCCN2C(=O)[C@H](CCN)NC(=O)[C@H](CCC(=O)O)NC(=O)[C@H](CCN)NC(=O)[C@H](CCN)NC(=O)[C@H](Cc2c[nH]c3ccccc23)NC(=O)[C@H](CCN)NC(=O)[C@H](CCN)NC(=O)[C@H](CCCCN)NC(=O)[C@H](CCN)NC1=O [Example 15] (cyclo(TWI[Dab]K[Dab][Dab]W[Dab][Dab]E[Dab][dP]P))

>  <Discrete label>
N

$$$$
>  <Molecule>
CC[C@H](C)[C@@H]1NC(=O)[C@H](Cc2c[nH]c3ccccc23)NC(=O)[C@H]([C@@H](C)O)NC(=O)[C@@H]2CCCN2C(=O)[C@H]2CCCN2C(=O)[C@H](CCN)NC(=O)[C@H](C)NC(=O)[C@H](CCN)NC(=O)[C@H](CCN)NC(=O)[C@H](Cc2ccc(O)cc2)NC(=O)[C@H](CCN)NC(=O)[C@H](CCN)NC(=O)[C@H](CCCCN)NC(=O)[C@H](CCN)NC1=O [Example 20] (cyclo(TWI[Dab]K[Dab][Dab]Y[Dab][Dab]A[Dab][dP]P))

>  <Discrete label>
N

$$$$
>  <Molecule>
CC[C@H](C)[C@@H]1NC(=O)[C@H](Cc2c[nH]c3ccccc23)NC(=O)[C@H]([C@@H](C)O)NC(=O)[C@@H]2CCCN2C(=O)[C@H]2CCCN2C(=O)[C@H](CCN)NC(=O)[C@H](CCO)NC(=O)[C@H](CCN)NC(=O)[C@H](CCN)NC(=O)[C@H](Cc2c[nH]c3ccccc23)NC(=O)[C@H](CCN)NC(=O)[C@H](CCN)NC(=O)[C@H](CCCCN)NC(=O)[C@H](CCN)NC1=O [Example 35] (cyclo(TWI[Dab]K[Dab][Dab]W[Dab][Dab][hSer][Dab][dP]P))

>  <Discrete label>
Y

$$$$

Enquiry: Bench note: check whether CC[C@H](C)[C@@H]1NC(=O)[C@H](Cc2c[nH]c3ccccc23)NC(=O)[C@H](CCC(=O)O)NC(=O)[C@@H]2CCCN2C(=O)[C@H]2CCCN2C(=O)[C@H](CCC(N)=O)NC(=O)[C@H](C)NC(=O)[C@H](CCN)NC(=O)[C@H](CCN)NC(=O)[C@H](Cc2c[nH]c3ccccc23)NC(=O)[C@H](CCN)NC(=O)[C@@H](CCN)NC(=O)[C@H](CCCCN)NC(=O)[C@H](CCN)NC1=O [Example 45] (cyclo(EWI[Dab]K[dDab][Dab]W[Dab][Dab]AQ[dP]P)) shows MIC P. aeruginosa P1021903 below 0.2 µg/mL
Return: N

Enquiry: For this molecule, is MIC P. aeruginosa P1021903 lower than 0.2 µg/mL? CC[C@H](C)[C@@H]1NC(=O)[C@H](Cc2c[nH]c3ccccc23)NC(=O)[C@H]([C@@H](C)O)NC(=O)[C@@H]2CCCN2C(=O)[C@H]2CCCN2C(=O)[C@H](CCN)NC(=O)[C@H](C)NC(=O)[C@H](CCN)NC(=O)[C@H](CCCCN)NC(=O)[C@H](Cc2c[nH]c3ccccc23)NC(=O)[C@H](CCN)NC(=O)[C@H](CCN)NC(=O)[C@H](CCCCN)NC(=O)[C@H](CCN)NC1=O [Example 27] (cyclo(TWI[Dab]K[Dab][Dab]WK[Dab]A[Dab][dP]P))
Return: N

---

Test protocol: in vivo
Design: species or system CD-1 mice
Setup conditions: CD-1, mouse, sc, 5 mg/kg
Non-standard residues stand in square brackets, D forms with d. Residues, ends and D or L forms follow the SMILES beside them. Dab = NCC[C@H](N)C(=O)O
Measurement name: level at 8 h (ng/mL)
Numbers only; they are read as ng/mL.

Lookup result for CC[C@H](C)[C@@H]1NC(=O)[C@H](Cc2c[nH]c3ccccc23)NC(=O)[C@H]([C@@H](C)O)NC(=O)[C@@H]2CCCN2C(=O)[C@H]2CCCN2C(=O)[C@H](CCN)NC(=O)[C@H](C)NC(=O)[C@H](CCN)NC(=O)[C@H](CCN)NC(=O)[C@H](Cc2c[nH]c3ccccc23)NC(=O)[C@H](CCN)NC(=O)[C@H](CCN)NC(=O)[C@H](CCCCN)NC(=O)[C@H](CCN)NC1=O [Example 1] (cyclo(TWI[Dab]K[Dab][Dab]W[Dab][Dab]A[Dab][dP]P)) ; measured level at 8 h: 7.3
